Cited source: the supplement of paper PMC10627819

tested on: B. subtilis 168; experiment: fitness (endpoint OD595 vs no drug) (fraction); higher = more growth; conditions: first compound 37.5 µg/mL; partner 2 µg/mL; main component drawn;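 further: OD595 on entry to stationary phase over no-drug wells; at most 1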
Listing: fitness of selected compounds

Solved cases below.
CC[C@H](C)[C@H](N)C1=N[C@H](C(=O)N[C@@H](CC(C)C)C(=O)N[C@H](CCC(=O)O)C(=O)N[C@H](C(=O)N[C@H]2CCCCNC(=O)[C@H](CC(N)=O)NC(=O)[C@@H](CC(=O)O)NC(=O)[C@H](Cc3cnc[nH]3)NC(=O)[C@@H](Cc3ccccc3)NC(=O)[C@H]([C@@H](C)CC)NC(=O)[C@@H](CCCN)NC2=O)[C@@H](C)CC)CS1 [Bacitracin] + CN[C@@H]1[C@H](O)[C@H](NC)[C@H]2O[C@@]3(O)C(=O)C[C@@H](C)O[C@H]3O[C@@H]2[C@H]1O [Spectinomycin]    0.903
CC[C@H](C)[C@H](N)C1=N[C@H](C(=O)N[C@@H](CC(C)C)C(=O)N[C@H](CCC(=O)O)C(=O)N[C@H](C(=O)N[C@H]2CCCCNC(=O)[C@H](CC(N)=O)NC(=O)[C@@H](CC(=O)O)NC(=O)[C@H](Cc3cnc[nH]3)NC(=O)[C@@H](Cc3ccccc3)NC(=O)[C@H]([C@@H](C)CC)NC(=O)[C@@H](CCCN)NC2=O)[C@@H](C)CC)CS1 [Bacitracin] + CO/N=C(\C(=O)N[C@@H]1C(=O)N2C(C(=O)O)=C(COC(C)=O)CS[C@H]12)c1csc(N)n1 [Cefotaxime]    0.134
CC[C@H](C)[C@H](N)C1=N[C@H](C(=O)N[C@@H](CC(C)C)C(=O)N[C@H](CCC(=O)O)C(=O)N[C@H](C(=O)N[C@H]2CCCCNC(=O)[C@H](CC(N)=O)NC(=O)[C@@H](CC(=O)O)NC(=O)[C@H](Cc3cnc[nH]3)NC(=O)[C@@H](Cc3ccccc3)NC(=O)[C@H]([C@@H](C)CC)NC(=O)[C@@H](CCCN)NC2=O)[C@@H](C)CC)CS1 [Bacitracin] + Cc1cc(NS(=O)(=O)c2ccc(N)cc2)no1 [Sulfamethoxazol]    0.855

# evaluate next
fitness for CC[C@H](C)[C@H](N)C1=N[C@H](C(=O)N[C@@H](CC(C)C)C(=O)N[C@H](CCC(=O)O)C(=O)N[C@H](C(=O)N[C@H]2CCCCNC(=O)[C@H](CC(N)=O)NC(=O)[C@@H](CC(=O)O)NC(=O)[C@H](Cc3cnc[nH]3)NC(=O)[C@@H](Cc3ccccc3)NC(=O)[C@H]([C@@H](C)CC)NC(=O)[C@@H](CCCN)NC2=O)[C@@H](C)CC)CS1 [Bacitracin] + COc1c(N2C[C@@H]3CCCN[C@@H]3C2)c(F)cc2c(=O)c(C(=O)O)cn(C3CC3)c12 [Moxifloxacin] is 0.0202

---

tested on: S. pneumoniae D39V; assay: fitness (endpoint OD595 vs no drug) (fraction); higher = more growth; settings: first compound 0.105 µg/mL; partner 4 µg/mL
Listing: fitness of selected compounds
Lab note: record just the number, no unit beside it.

CC(=O)NC[C@H]1CN(c2ccc(N3CCOCC3)c(F)c2)C(=O)O1 [Linezolid] + COc1ccc(C[C@H](N)C(=O)N[C@H]2[C@@H](O)[C@H](n3cnc4c(N(C)C)ncnc43)O[C@@H]2CO)cc1 [Puromycin]    0.644
CC(=O)NC[C@H]1CN(c2ccc(N3CCOCC3)c(F)c2)C(=O)O1 [Linezolid] + CN[C@@H]1[C@H](O[C@H]2[C@H](O[C@H]3[C@H](O)[C@@H](O)[C@H](N=C(N)N)[C@@H](O)[C@@H]3N=C(N)N)O[C@@H](C)[C@]2(O)C=O)O[C@@H](CO)[C@H](O)[C@H]1O [Streptomycin]    0.752
CC(=O)NC[C@H]1CN(c2ccc(N3CCOCC3)c(F)c2)C(=O)O1 [Linezolid] + Cc1cc(NS(=O)(=O)c2ccc(N)cc2)no1 [Sulfamethoxazol]    0.821

fitness for CC(=O)NC[C@H]1CN(c2ccc(N3CCOCC3)c(F)c2)C(=O)O1 [Linezolid] + CN[C@@H]1[C@H](O)[C@H](NC)[C@H]2O[C@@]3(O)C(=O)C[C@@H](C)O[C@H]3O[C@@H]2[C@H]1O [Spectinomycin] is 0.767

fitness for CC(=O)NC[C@H]1CN(c2ccc(N3CCOCC3)c(F)c2)C(=O)O1 [Linezolid] + O=C1CN(/N=C/c2ccc([N+](=O)[O-])o2)C(=O)N1 [Nitrofurantoin] is 0.795
